Item-by-item account of half-life
experiment: Half life of the compound at pH 2 at 37 degC; assay type: physicochemical

compound	modifier.sign	half-life (h)
O[C@@H](COc1cccc2ncccc12)CN1CCN([C@H]2c3ccccc3[C@H]3C[C@H]3c3ccccc32)CC1	=	3
OC(COc1cccc2ncccc12)CN1CCN(C2c3ccccc3CCc3ccccc32)CC1 (stereo not drawn)	=	0.25
O[C@@H](COc1cccc2ncccc12)CN1CCN([C@H]2c3ccccc3[C@@H]3[C@H](c4ccccc42)C3(F)F)CC1	>	72

----------
biological target: High affinity nerve growth factor receptor (Homo sapiens, UniProt P04629)
Sequence (P04629 whole entry): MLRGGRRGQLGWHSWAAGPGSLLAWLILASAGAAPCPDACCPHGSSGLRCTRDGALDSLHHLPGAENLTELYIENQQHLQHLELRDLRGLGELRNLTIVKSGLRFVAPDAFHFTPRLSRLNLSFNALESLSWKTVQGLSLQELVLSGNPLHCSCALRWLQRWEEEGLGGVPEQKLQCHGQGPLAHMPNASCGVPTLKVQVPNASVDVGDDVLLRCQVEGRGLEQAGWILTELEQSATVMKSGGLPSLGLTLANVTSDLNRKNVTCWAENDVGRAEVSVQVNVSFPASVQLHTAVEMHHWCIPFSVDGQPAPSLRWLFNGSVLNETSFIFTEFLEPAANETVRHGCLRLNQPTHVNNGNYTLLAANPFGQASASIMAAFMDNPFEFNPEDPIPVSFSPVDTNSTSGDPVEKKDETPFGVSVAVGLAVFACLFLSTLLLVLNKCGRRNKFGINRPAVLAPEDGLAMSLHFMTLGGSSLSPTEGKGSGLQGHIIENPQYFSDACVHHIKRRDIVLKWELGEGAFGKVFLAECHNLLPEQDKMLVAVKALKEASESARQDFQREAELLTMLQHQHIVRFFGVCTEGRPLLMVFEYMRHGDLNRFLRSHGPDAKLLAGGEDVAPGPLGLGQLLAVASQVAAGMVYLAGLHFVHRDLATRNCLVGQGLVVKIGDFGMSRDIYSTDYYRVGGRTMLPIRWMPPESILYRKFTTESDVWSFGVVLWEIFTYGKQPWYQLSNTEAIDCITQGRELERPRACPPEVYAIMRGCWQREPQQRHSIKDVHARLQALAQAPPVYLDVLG
pIC50: −log10 of the molar value.
readout.label: pIC50

compound	readout.label	recorded.measurement
O=C(Nc1cc(Oc2cc(F)c(NC(=O)C3(C(=O)Nc4ccc(F)cc4)CC3)cc2F)ccn1)C1CC1 [ALTIRATINIB]	pIC50	9.07
